System: NOMO1
Assay: cell viability relative to DMSO control; higher = less cytotoxic
Details: RPMI 5 mM glucose + 10% dialyzed FBS; 48 h; 15.4 µM
Criterion: cell viability strictly under 70%. Met: true (1). Not met: false (0).

[[record]]
molecule = "CCN(CC)C(=S)SSC(=S)N(CC)CC"
assigned_label = "true (1)"

[[record]]
molecule = "CC[C@H]1/C=C\\C=C/C[C@@H](C)[C@H](O)[C@@](C)(O)C(=O)[C@@H](C)[C@H](O)[C@@H](C)C(=O)[C@@H](C)[C@H](O)[C@@H](C)/C=C/C(=O)O[C@@H]2[C@H](C)[C@H](CC1)O[C@]1(CC[C@H](C)[C@H](C[C@@H](C)O)O1)[C@H]2C"
assigned_label = "true (1)"

[[record]]
molecule = "N=C(N)NC(=O)c1nc(Cl)c(N)nc1N"
assigned_label = "true (1)"

[[record]]
molecule = "CCOC(=O)[C@H](CCc1ccccc1)N[C@@H](C)C(=O)N1CCC[C@H]1C(=O)O"
assigned_label = "false (0)"

[[record]]
molecule = "OCc1ccc(-c2nn(Cc3ccccc3)c3ccccc23)o1"
assigned_label = "true (1)"

[[record]]
molecule = "O=C1C[C@@H](c2ccc(O)cc2)Oc2cc(O)cc(O)c21"
assigned_label = "false (0)"

[[record]]
molecule = "Clc1cc(Cl)cc(CNc2ncncc2-c2ccc3c(c2)OCO3)c1"
assigned_label = "false (0)"

[[record]]
molecule = "CC(C)C[C@H](NC(=O)[C@@H](NC(=O)c1cccc(-c2ccccc2)n1)[C@@H](C)O)B(O)O"
assigned_label = "true (1)"

[[record]]
molecule = "CCOc1cc(N)c(Cl)cc1C(=O)NCC1CN(Cc2ccc(F)cc2)CCO1 (stereo not given)"
assigned_label = "false (0)"

[[record]]
molecule = "CN(C/C=C/C#CC(C)(C)C)Cc1cccc2ccccc12"
assigned_label = "false (0)"

[[record]]
molecule = "C\\C1=C\\N([C@H]2C[C@H](N=[N+]=[N-])[C@@H](CO)O2)C(=O)NC1=O"
assigned_label = "true (1)"

[[record]]
molecule = "CN1CCC(CC1)COC2=CN=C(N=C2)C3=CC(=CC=C3)CN4/N=C(\\C=C/C4=O)C5=CC(=CC=C5)C#N"
assigned_label = "false (0)"

[[record]]
molecule = "C[N+]1(C)[C@@H]2C[C@@H](OC(=O)[C@H](CO)c3ccccc3)C[C@H]1[C@@H]1O[C@@H]12.[Br-]"
assigned_label = "false (0)"

[[record]]
molecule = "Cn1c(Nc2ccc(C(F)(F)F)cc2)nc2cc(Oc3ccnc(-c4nc(C(F)(F)F)c[nH]4)c3)ccc21"
assigned_label = "false (0)"

[[record]]
molecule = "O=C(NC[C@H](O)CN1CCc2ccccc2C1)c1cc(NC2COC2)ncn1"
assigned_label = "true (1)"

[[record]]
molecule = "CC(C)n1nc(-c2ccc3oc(N)nc3c2)c2c(N)ncnc21"
assigned_label = "true (1)"

[[record]]
molecule = "CCNC(=O)c1cc2c(-c3cc(OCCN4CCCC4)c(Cl)cc3Cl)nc(N)nc2s1"
assigned_label = "true (1)"

[[record]]
molecule = "C1CCC(C(CC2CCCCN2)C2CCCCC2)CC1 (stereo not given)"
assigned_label = "false (0)"

[[record]]
molecule = "CC1=CC=CC=C1CN2C(=O)C/3=C(/CCN(CC4=CC=CC=C4)C3)N\\5CC\\N=C25"
assigned_label = "true (1)"

[[record]]
molecule = "NC(CO)(CO)CCc1ccc(Sc2cccc(OCc3ccccc3)c2)cc1Cl"
assigned_label = "false (0)"

[[record]]
molecule = "CCC[C@H](N[C@@H](C)C(=O)N1[C@H](C(=O)O)C[C@@H]2CCCC[C@@H]21)C(=O)OCC"
assigned_label = "false (0)"

[[record]]
molecule = "CCOc1ccc(Nc2nc(-c3c(C)nc4ccccn34)cs2)cc1"
assigned_label = "true (1)"

